Sourced from patent US6083973A

biological target: RARβ (Homo sapiens)
readout.name: IC50 (µM)

CCCCCCCOc1cc2c(cc1-c1ccc3cc(C(=O)O)ccc3c1)C(C)(C)CCS2(=O)=O | 2.8
CCCCCCOc1cc2c(cc1/C(C)=C/C=C/C(C)=C/C(=O)O)C(C)(C)CCCS2(=O)=O | 2.5
CCCCCCCCOc1cc2c(cc1/C(C)=C/c1ccc(C(=O)O)cc1)C(C)(C)CCCS2(=O)=O | 6.9
CCCCCCCCc1cc2c(cc1/C(C)=C/c1ccc(C(=O)O)cc1)C(C)(C)CCCS2(=O)=O | 3.3
CCCCCCCOc1cc2c(cc1/C(C)=C/c1ccc(C(=O)O)cc1)C(C)CCCS2(=O)=O (stereo not drawn) | 5.1
CCCCCCCOc1cc2c(cc1/C(C)=C/c1ccc(C(=O)O)cc1)C(C)(C)CS2(=O)=O | 6.9

[P] CCCCCCCCc1cc2c(cc1/C(C)=C/c1ccc(C(=O)O)cc1)C(C)(C)CCS2(=O)=O
[Q] CCCCCCCOc1cc2c(cc1/C(C)=C/C=C/C(C)=C/C(=O)O)C(C)(C)CCS2(=O)=O [drawing 4]
q: Given P and Q , report the one with the higher recorded IC50. Indicate your choice by writing its label.
a: Q
(Q: 5.1 µM, P: 1.9 µM)

====

Biological target: RARα (Homo sapiens, UniProt P10276)
Sequence (P10276 1-462): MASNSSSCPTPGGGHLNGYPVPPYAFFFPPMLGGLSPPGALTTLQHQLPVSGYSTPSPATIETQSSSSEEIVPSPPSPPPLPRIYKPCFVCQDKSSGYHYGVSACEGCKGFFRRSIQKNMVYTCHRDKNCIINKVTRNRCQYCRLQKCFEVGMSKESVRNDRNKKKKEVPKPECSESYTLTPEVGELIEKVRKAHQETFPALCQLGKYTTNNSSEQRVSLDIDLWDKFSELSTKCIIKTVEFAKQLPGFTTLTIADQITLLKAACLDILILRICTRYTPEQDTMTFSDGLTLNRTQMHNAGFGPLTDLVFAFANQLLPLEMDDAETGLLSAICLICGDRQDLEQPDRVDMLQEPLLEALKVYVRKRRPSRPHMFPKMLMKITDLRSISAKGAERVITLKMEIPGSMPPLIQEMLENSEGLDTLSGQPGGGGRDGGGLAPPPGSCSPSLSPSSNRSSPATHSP
Test: Transactivation of RARα relative to ATRA
Type: biochemical
Details: both compounds at 10000 nM, read-out: Transactivation EC50 % MAX, RARα
readout.name: Emax at 10 µM (%)

[A] CCCCCCCOc1cc2c(cc1/C(C)=C/C=C/C(C)=C/C(=O)O)C(C)(C)CCCS2(=O)=O
[B] CCCCCCCOc1cc2c(cc1/C(C)=C/C=C/C(C)=C/C(=O)O)C(C)(C)CCS2
[C] CCCCCCCCc1cc2c(cc1/C(C)=C/c1ccc(C(=O)O)cc1)C(C)(C)CCCS2(=O)=O
[D] CCCCCCCOc1cc2c(cc1/C(C)=C/c1ccc(C(=O)O)cc1)C(C)CCCS2(=O)=O (stereo not drawn)
q: # rank by Emax at 10 µM, ascending (min first) When ranking, write the labels in the order the request describes.
a: D, A, C, B
(D: 5%, A: 12%, C: 18%, B: 27%)

[P] CCCCCCCOc1cc2c(cc1/C(C)=C/c1ccc(C(=O)O)cc1)C(C)(C)CCS2(=O)=O [drawing 3]
[Q] CCCCCCCOc1cc2c(cc1/C(C)=C/c1ccc(C(=O)O)cc1)C(C)(C)CS2(=O)=O
q: Given P and Q , report the one with the higher recorded Emax at 10 µM. Indicate your choice by writing its label.
a: P

[A] CCCCCCCOc1cc2c(cc1/C(C)=C/C=C/C(C)=C/C(=O)O)C(C)(C)CC[S+]2[O-] (stereo not drawn)
[B] CCCCCCCOc1cc2c(cc1\C(C)=C/C=C/C(C)=C/C(=O)O)C(C)(C)CCS2(=O)=O
[C] CCCCCCCOc1cc2c(cc1/C(C)=C/C=C/C(C)=C/C(=O)O)C(C)(C)CCS2(=O)=O [drawing 4]
q: Please order the records by their reported Emax at 10 µM, lowest number first. When ranking, write the labels in the order the request describes.
a: C, A, B

====

Biological target: RARγ (Homo sapiens, UniProt P13631)
Sequence (P13631 1-454): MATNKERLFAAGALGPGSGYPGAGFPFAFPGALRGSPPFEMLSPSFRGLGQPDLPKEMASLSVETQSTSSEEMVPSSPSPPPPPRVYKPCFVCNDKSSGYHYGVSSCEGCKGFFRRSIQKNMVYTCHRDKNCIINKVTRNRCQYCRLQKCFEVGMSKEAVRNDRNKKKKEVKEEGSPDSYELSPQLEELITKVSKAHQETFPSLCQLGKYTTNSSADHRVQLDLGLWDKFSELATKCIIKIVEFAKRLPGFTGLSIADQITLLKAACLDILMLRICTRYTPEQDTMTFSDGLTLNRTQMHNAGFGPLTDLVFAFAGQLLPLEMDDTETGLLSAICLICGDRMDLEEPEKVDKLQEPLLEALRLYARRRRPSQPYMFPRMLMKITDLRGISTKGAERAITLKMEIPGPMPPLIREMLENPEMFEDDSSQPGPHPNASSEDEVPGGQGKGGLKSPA
Test: Transactivation of RARγ relative to ATRA
Assay type: biochemical
Conditions: both compounds at 10000 nM, read-out: Transactivation EC50 % MAX, RARγ
readout.name: Emax at 10 µM (%)

CCCCCCCOc1cc2c(cc1/C(C)=C/C=C/C(C)=C/C(=O)O)C(C)(C)CCCS2(=O)=O | 30

[A] CCCCCCOc1cc2c(cc1/C(C)=C/C=C/C(C)=C/C(=O)O)C(C)(C)CCCS2(=O)=O
[B] CCCCCCCOc1cc2c(cc1/C(C)=C/c1ccc(C(=O)O)cc1)C(C)(C)CCS2(=O)=O [drawing 3]
q: Kindly identify the item with the lower Emax at 10 µM figure among these two: A and B Indicate your choice by writing its label.
a: B
(B: 9%, A: 46%)

[a] CCCCCCCOc1cc2c(cc1/C(C)=C/c1ccc(C(=O)O)cc1)C(C)(C)CS2(=O)=O
[b] CCCCCCCOc1cc2c(cc1/C(C)=C/C=C/C(C)=C/C(=O)O)C(C)(C)CCS2(=O)=O [drawing 4]
q: Kindly identify the item with the lower Emax at 10 µM figure among these two: a and b Indicate your choice by writing its label.
a: b
(b: 16%, a: 24%)

====

Target: RARγ (Homo sapiens, UniProt P13631)
Sequence (P13631 1-454): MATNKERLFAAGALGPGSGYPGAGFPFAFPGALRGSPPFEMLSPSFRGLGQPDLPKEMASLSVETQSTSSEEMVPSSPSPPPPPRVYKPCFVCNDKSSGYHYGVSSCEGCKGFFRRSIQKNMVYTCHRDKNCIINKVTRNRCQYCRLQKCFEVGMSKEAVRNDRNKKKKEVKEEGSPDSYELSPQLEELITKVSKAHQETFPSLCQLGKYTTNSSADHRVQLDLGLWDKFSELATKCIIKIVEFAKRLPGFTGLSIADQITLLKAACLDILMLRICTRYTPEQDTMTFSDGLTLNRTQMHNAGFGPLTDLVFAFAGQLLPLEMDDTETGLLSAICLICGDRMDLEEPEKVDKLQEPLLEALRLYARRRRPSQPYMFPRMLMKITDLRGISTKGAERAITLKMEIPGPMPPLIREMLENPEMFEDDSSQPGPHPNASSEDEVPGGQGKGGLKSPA
Assay: Transactivation of RARγ relative to ATRA
Format: biochemical
Details: both compounds at 10000 nM, read-out: Transactivation EC50 % MAX, RARγ
readout.name: Emax at 10 µM (%)

[I] CCCCCCCOc1cc2c(cc1/C(C)=C/c1ccc(C(=O)O)cc1)C(C)(C)CCCS2(=O)=O
[II] CCCCCCCOc1cc2c(cc1/C(C)=C/C=C/C(C)=C/C(=O)O)C(C)(C)CC[S+]2[O-] (stereo not shown)
[III] CCCCCCOc1cc2c(cc1/C(C)=C/c1ccc(C(=O)O)cc1)C(C)(C)CCCS2(=O)=O
[IV] CCCCCCCCc1cc2c(cc1/C(C)=C/c1ccc(C(=O)O)cc1)C(C)(C)CCCS2(=O)=O
q: Put the entries in order of Emax at 10 µM, starting with the largest number. When ranking, write the labels in the order the request describes.
a: III, IV, I, II

====

molecular target: RARβ (Homo sapiens, UniProt P10826); assay: Transactivation of RARβ relative to ATRA; assay type: biochemical; conditions: both compounds at 10000 nM, read-out: Transactivation EC50 % MAX, RARβ
Sequence (P10826 whole entry): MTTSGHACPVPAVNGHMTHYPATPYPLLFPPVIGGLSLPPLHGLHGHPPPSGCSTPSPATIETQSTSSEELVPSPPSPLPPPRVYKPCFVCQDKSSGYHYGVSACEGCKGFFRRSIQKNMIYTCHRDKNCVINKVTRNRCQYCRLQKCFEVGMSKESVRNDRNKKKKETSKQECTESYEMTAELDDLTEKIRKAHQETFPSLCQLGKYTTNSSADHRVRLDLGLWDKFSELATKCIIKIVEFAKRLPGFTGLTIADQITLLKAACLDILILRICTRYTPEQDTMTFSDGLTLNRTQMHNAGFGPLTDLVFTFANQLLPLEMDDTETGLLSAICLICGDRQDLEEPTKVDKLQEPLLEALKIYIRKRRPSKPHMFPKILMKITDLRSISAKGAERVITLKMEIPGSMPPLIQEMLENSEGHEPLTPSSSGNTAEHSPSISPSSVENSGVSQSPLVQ
readout.name: % transactivation relative to ATRA at 10 µM (%)

Example cases with answers are listed next.
CCCCCCCCOc1cc2c(cc1/C(C)=C/c1ccc(C(=O)O)cc1)C(C)(C)CCCS2(=O)=O | 21
CCCCCCCCc1cc2c(cc1/C(C)=C/c1ccc(C(=O)O)cc1)C(C)(C)CCCS2(=O)=O | 13
CCCCCCCOc1cc2c(cc1-c1ccc3cc(C(=O)O)ccc3c1)C(C)(C)CCS2(=O)=O | 17

[I] CCCCCCCOc1cc2c(cc1C#Cc1ccc(C(=O)O)cc1)C(C)(C)CCS2(=O)=O
[II] CCCCCCCOc1cc2c(cc1/C(C)=C/C=C/C(C)=C/C(=O)O)C(C)(C)CCS2
[III] CCCCCCCOc1cc2c(cc1\C(C)=C/C=C/C(C)=C/C(=O)O)C(C)(C)CCS2(=O)=O
q: Please order the records by their reported % transactivation relative to ATRA at 10 µM, lowest number first. When ranking, write the labels in the order the request describes.
a: I, II, III
(I: 6%, II: 17%, III: 31%)
